Cited source for all entries: PubChem BioAssay AID1745845

Assay: Primary qHTS for Inhibitors of ATXN expression; also: nearly all actives have a fitted effect of over 55% in size
Conditions: HEK-293 ATXN2-luciferase reporter, luminescence, 24 h; series mostly up to 57 µM
Screen size: about 360,000 compounds; about 2,600 (0.72%) were called active. Not shown: some 5% with an inconclusive outcome. Calls follow the shape of the dose curve; as a rule, active = well fitted inhibition curve with a large enough effect; inconclusive = small, poorly fitted or top-dose-only effect; inactive = no such curve, though single readings can be large or run the other way. The full list was thinned out, with actives kept by preference.
Lab note: assign the record to one of t = active, f = inactive

Past entries and their recorded results:
COc1cccc(CN2CCC(C(=O)NC(c3ccc4c(c3)OCO4)c3ccccn3)CC2)c1 (stereo not given): f
O=C(NC(c1ccc(Cl)cc1)c1cnccn1)C1CCN(Cc2ccc(Cl)cc2)CC1 (stereo not given): f
O=c1c2ccccc2ncn1/N=C/c1ccccc1: f
CCn1c(/C=C/c2ccc([N+](=O)[O-])o2)nc2ccccc2c1=O: t
COc1ccc(-c2c(C)c3ccc(O)c(CN4CCCC4)c3oc2=O)cc1OC: f
Cc1ccc(-n2c(SCC(=O)N/N=C/C=C/c3ccccc3[N+](=O)[O-])nc3ccccc3c2=O)cc1: f
COc1ccc(Cn2ccc3nc(C)c(C(=O)Nc4ccc(C)c(F)c4)cc3c2=O)cc1: f
CCC(=O)N1CCc2cc(Br)cc(S(=O)(=O)CCC(=O)NCc3ccccc3OC)c21: f
COc1ccc(CCNC(=O)CCCn2c(=O)c3ccccc3n(Cc3ccc(C)cc3)c2=O)cc1OC: f

Now examine the next entry.
Problem: # fetch the recorded call for CC(C)CCNC(=O)CSc1nc2ccccc2nc1Cc1ccc(Cl)cc1 here
Solution: f

---

Assay: Primary qHTS for Inhibitors of ATXN expression; also: nearly all actives have a fitted effect of over 55% in size; also: potency is read from the fitted curve at half-maximal effect
Conditions: HEK-293 ATXN2-luciferase reporter, luminescence, 24 h; series mostly up to 57 µM
Hit rate of the full screen: of about 360,000 compounds, about 2,600 (0.72%) were called active. About 5% were inconclusive and are not listed. The sample holds actives, similar compounds and a random draw of the others, so the mix is not that of the screen.
metric: Potency

COC(=O)Nc1nc2ccc(C(=O)C3CC3)cc2[nH]1: inactive
COC1C(CO)OC(n2cnc3c(=S)nc(N)[nH]c32)C1O (centres undefined): inactive
COc1ccc(/C=C2/SC(=O)N(CCCCCC(=O)Nc3ccccc3C(=O)O)C2=S)cc1: 10 µM (active)
Cc1cccc(C(=O)NCCc2nc3ccccc3n2Cc2ccccc2Cl)c1: inactive
O=C(OCCN1CCOCC1)c1cccnc1Nc1cccc(C(F)(F)F)c1: inactive
COc1cc(Nc2ncc(F)c(Nc3ccc4c(n3)NC(=O)C(C)(C)O4)n2)cc(OC)c1OC: inactive

Problem: Find the measured Potency of COc1ccc(/C=C2\SC(=O)N(CCC(=O)NC3CCS(=O)(=O)C3)C2=O)cc1 (centres undefined) and report it.
Solution: inactive

Problem: Find the measured Potency of CO[C@@H]1[C@@H](O)[C@H](O)[C@@H](n2c3c(Cl)cccc3c3c4c(c5c6cccc(Cl)c6[nH]c5c32)C(=O)NC4=O)O[C@@H]1CO and report it.
Solution: 0.273 µM (active)

Problem: Find the measured Potency of COc1ccc(Cl)cc1N(C)C(=O)c1cc2c(=O)oc3ccc(C)cc3c2s1 and report it.
Solution: inactive

---

Assay: Primary qHTS for Inhibitors of ATXN expression; also: nearly all actives have a fitted effect of over 55% in size; also: potency is read from the fitted curve at half-maximal effect
Conditions: HEK-293 ATXN2-luciferase reporter, luminescence, 24 h; series mostly up to 57 µM
The whole screen tested about 360,000 compounds, of which about 2,600 (0.72%) were called active. About 5% were inconclusive and are not listed. Only a selection was taken, and actives are over-represented in it overall.
metric: Potency

Answered cases to consult:
CN(C)S(=O)(=O)c1ccc(Oc2ccc(S(=O)(=O)N(C)C)cc2)cc1: inactive
CCc1cc2c(-c3ccccc3)cc(=O)oc2c2c1OCN(Cc1ccc(C)cc1)C2: inactive
O=C(O)CSc1c2c(nc3cc(C(=O)Nc4cccc(C(F)(F)F)c4)ccc13)CCCC2: inactive
O=C(Nc1nc2ccc([N+](=O)[O-])cc2s1)c1ccc(S(=O)(=O)N2CCCc3ccccc32)cc1: 13.4 µM (active)

Problem: Find the measured Potency of CCC(=O)Nc1nnc(S(=O)(=O)N2CCCc3ccccc32)s1 and report it.
Solution: inactive

Problem: Find the measured Potency of CN(CC(=O)Nc1ccccc1F)S(=O)(=O)c1ccc2c(c1)c(=O)n(C)c(=O)n2C and report it.
Solution: inactive

Problem: Find the measured Potency of CCOc1cc(C=C2C(=O)N(c3ccccc3)N=C2C)cc(Cl)c1OCC(=O)OC and report it.
Solution: inactive

Problem: Find the measured Potency of CCN(CC)CCNC(=O)c1c(C)[nH]c(C=C2C(=O)Nc3ccc(F)cc32)c1C and report it.
Solution: 44.4 µM (active)

Problem: Find the measured Potency of CCCCC(O)(CCCC)C(=O)NN(C(=O)CCl)c1ccccc1 and report it.
Solution: inactive
